The next entries give measured pKi for 5-hydroxytryptamine receptor 2A (Rattus norvegicus, UniProt P14842).
Note on units: pKi is unitless, being -log10 of a concentration expressed in mol/L.

{"columns": ["compound", "pKi"],
 "data": [
  ["Cc1cccc(N2CCN(CCCCNC(=O)c3cc4ccccc4o3)CC2)c1", 7.82]
]}

// query Look up pKi with 5-hydroxytryptamine receptor 2A (Rattus norvegicus, UniProt P14842) for this molecule: `O=C1c2cc3ccccc3n2CCN1CCCCN1CCN(c2cccc(Cl)c2Cl)CC1`
Sequence (P14842 whole entry): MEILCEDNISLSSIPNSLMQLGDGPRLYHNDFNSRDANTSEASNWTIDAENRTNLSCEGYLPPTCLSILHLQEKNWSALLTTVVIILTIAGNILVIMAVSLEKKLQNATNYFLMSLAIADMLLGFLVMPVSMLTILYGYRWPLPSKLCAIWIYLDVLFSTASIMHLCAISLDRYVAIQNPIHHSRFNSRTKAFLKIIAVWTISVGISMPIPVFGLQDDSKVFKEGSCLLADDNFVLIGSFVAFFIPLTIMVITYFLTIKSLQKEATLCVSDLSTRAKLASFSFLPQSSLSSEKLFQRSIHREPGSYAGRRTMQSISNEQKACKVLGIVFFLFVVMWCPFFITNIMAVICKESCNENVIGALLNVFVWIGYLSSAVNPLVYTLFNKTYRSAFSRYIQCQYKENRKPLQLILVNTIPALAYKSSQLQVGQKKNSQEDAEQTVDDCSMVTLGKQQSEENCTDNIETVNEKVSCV
// result 7.08

// query Look up pKi with 5-hydroxytryptamine receptor 2A (Rattus norvegicus, UniProt P14842) for this molecule: `Clc1cccc(N2CCN(CCCCOc3ccc4cccnc4c3)CC2)c1Cl`
// result 6.90

// query Look up pKi with 5-hydroxytryptamine receptor 2A (Rattus norvegicus, UniProt P14842) for this molecule: `O=C(NCCCCN1CCN(c2cccc(Cl)c2Cl)CC1)c1cc2ccccc2cn1`
// result 7.39

// query Look up pKi with 5-hydroxytryptamine receptor 2A (Rattus norvegicus, UniProt P14842) for this molecule: `Clc1cccc(N2CCN(CCCCCOc3cc4ccccc4cn3)CC2)c1Cl`
// result 7.24

* * *

The next entries give measured pKi for Voltage-gated inwardly rectifying potassium channel KCNH2 (Homo sapiens).
Note on units: pKi is unitless, being -log10 of a concentration expressed in mol/L.

{"columns": ["compound", "pKi"],
 "data": [
  ["O=C(NCCCCN1CCN(c2cccc(Cl)c2)CC1)c1cc2ccccc2cn1", 6.52],
  ["N#Cc1cccc(N2CCN(CCCCNC(=O)c3cc4ccccc4o3)CC2)c1", 6.41],
  ["Clc1cccc(N2CCN(CCCCCOc3cc4ccccc4cn3)CC2)c1Cl", 6.68],
  ["COc1cccc2cc3n(c12)CCN(CCCCNC(=O)C1=Cc2ccccc2CN1)C3", 5.74],
  ["O=C1c2cc3ccccc3n2CCN1CCCCN1CCN(c2cccc(Cl)c2Cl)CC1", 6.70],
  ["Clc1cccc(N2CCN(CCCCOc3cc4ccccc4cn3)CC2)c1Cl", 6.80]
]}

// query Look up pKi with Voltage-gated inwardly rectifying potassium channel KCNH2 (Homo sapiens) for this compound: `Cc1cc2c(s1)Nc1ccccc1N=C2N1CCN(C)CC1`
Sequence (Q12809 whole entry): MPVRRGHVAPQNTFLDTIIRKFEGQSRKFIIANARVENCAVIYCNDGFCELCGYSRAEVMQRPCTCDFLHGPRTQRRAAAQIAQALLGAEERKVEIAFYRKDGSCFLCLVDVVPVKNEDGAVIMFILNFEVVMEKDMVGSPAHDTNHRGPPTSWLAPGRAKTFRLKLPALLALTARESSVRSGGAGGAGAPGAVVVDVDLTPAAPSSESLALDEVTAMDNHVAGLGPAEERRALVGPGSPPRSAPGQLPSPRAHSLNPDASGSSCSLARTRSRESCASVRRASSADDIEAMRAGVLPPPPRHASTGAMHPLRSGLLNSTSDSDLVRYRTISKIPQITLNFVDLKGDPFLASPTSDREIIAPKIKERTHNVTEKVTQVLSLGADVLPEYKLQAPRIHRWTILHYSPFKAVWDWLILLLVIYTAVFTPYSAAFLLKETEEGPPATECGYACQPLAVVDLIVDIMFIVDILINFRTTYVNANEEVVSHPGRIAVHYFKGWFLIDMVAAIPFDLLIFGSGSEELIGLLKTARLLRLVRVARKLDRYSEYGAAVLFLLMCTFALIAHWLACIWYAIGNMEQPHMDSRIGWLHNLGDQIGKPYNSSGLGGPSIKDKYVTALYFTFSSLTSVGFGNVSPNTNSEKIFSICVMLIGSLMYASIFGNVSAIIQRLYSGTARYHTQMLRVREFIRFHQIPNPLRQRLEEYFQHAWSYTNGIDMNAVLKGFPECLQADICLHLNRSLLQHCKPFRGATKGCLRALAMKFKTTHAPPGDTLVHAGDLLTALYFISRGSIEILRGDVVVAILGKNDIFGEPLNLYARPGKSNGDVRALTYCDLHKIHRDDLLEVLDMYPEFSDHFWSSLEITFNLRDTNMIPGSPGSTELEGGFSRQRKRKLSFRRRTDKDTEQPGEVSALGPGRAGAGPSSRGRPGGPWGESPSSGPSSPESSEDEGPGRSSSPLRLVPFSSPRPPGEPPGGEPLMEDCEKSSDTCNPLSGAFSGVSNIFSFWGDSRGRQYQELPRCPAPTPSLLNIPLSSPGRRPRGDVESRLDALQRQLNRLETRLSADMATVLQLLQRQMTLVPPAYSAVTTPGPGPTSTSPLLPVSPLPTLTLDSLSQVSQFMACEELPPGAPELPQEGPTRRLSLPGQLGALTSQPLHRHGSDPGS
// result 4.44

// query Look up pKi with Voltage-gated inwardly rectifying potassium channel KCNH2 (Homo sapiens) for this compound: `O=C(NCCCCN1CCN(c2cccc(Cl)c2Cl)CC1)c1cc2ccccc2cn1`
// result 6.70

// query Look up pKi with Voltage-gated inwardly rectifying potassium channel KCNH2 (Homo sapiens) for this compound: `COc1cccc2cc3n(c12)CCN(CCCCN1CCn2c(cc4ccccc42)C1=O)C3`
// result 6.59

// query Look up pKi with Voltage-gated inwardly rectifying potassium channel KCNH2 (Homo sapiens) for this compound: `Cc1cccc(N2CCN(CCCCNC(=O)c3cc4ccccc4o3)CC2)c1`
// result 6.03

* * *

The next entries give measured pKi for D(1A) dopamine receptor (Rattus norvegicus).
Note on units: pKi is unitless, being -log10 of a concentration expressed in mol/L.

Examples from the recorded data:
{"columns": ["compound", "tested_system", "pKi"],
 "data": [
  ["O=C1c2cc3ccccc3n2CCN1CCCCN1CCN(c2ccc(Cl)cc2Cl)CC1", "D(1A) dopamine receptor (Rattus norvegicus)", 5.37],
  ["O=C1c2cc3ccccc3n2CCN1CCCCN1CCN(c2cccc(Cl)c2Cl)CC1", "D(1A) dopamine receptor (Rattus norvegicus)", 5.36],
  ["O=C(NCCCCN1CCN(c2cccc(Cl)c2)CC1)c1cc2ccccc2cn1", "D(1A) dopamine receptor (Rattus norvegicus)", 5.26],
  ["O=C(NCCCCN1CCN(c2cccc(Cl)c2Cl)CC1)c1cc2ccccc2cn1", "D(1A) dopamine receptor (Rattus norvegicus)", 5.34]
]}

// below: pKi requested for another molecule
// query Quick one: pKi for `Cc1cccc(N2CCN(CCCCNC(=O)c3cc4ccccc4o3)CC2)c1` ?
// result 5.48

* * *

The entries below come with measured pKi values attached.
# tested_system: 5-hydroxytryptamine receptor 1A (Rattus norvegicus, UniProt P19327)
# Sequence (P19327 whole entry): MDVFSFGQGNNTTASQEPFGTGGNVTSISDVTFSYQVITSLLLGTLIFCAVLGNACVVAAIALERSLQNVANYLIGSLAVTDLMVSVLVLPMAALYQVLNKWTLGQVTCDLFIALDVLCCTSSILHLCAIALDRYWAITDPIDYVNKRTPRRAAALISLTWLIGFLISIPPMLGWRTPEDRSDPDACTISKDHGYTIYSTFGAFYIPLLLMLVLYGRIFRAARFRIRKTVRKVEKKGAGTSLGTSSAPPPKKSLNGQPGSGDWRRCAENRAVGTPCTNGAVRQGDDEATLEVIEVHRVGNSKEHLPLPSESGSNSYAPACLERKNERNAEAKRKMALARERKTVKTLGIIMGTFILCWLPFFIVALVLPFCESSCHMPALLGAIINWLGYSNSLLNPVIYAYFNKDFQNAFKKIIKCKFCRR
Note on units: pKi is unitless, being -log10 of a concentration expressed in mol/L.

Examples from the recorded data:
{"columns": ["compound", "pKi"],
 "data": [
  ["Clc1cccc(N2CCN(CCCCOc3ccc4cccnc4c3)CC2)c1Cl", 8.40],
  ["O=C(NCCCCN1CCN(c2cccc(Cl)c2)CC1)c1cc2ccccc2cn1", 7.83],
  ["COc1cccc2cc3n(c12)CCN(CCCCN1CCn2c(cc4ccccc42)C1=O)C3", 7.48],
  ["Clc1cccc(N2CCN(CCCCOc3cc4ccccc4cn3)CC2)c1Cl", 7.62],
  ["Cc1cccc(N2CCN(CCCCNC(=O)c3cc4ccccc4o3)CC2)c1", 7.92],
  ["Clc1cccc(N2CCN(CCCCCOc3cc4ccccc4cn3)CC2)c1Cl", 7.74],
  ["O=C(NCCCCN1CCN(c2cccc(Cl)c2Cl)CC1)c1cc2ccccc2cn1", 8.30],
  ["COc1cccc2c1C1CCN(CCCCNC(=O)C3=Cc4ccccc4CN3)CC1=N2 (stereo not given)", 6.93],
  ["O=C1c2cc3ccccc3n2CCN1CCCCN1CCN(c2cccc(Cl)c2Cl)CC1", 8.03]
]}

// below: pKi requested for another compound
// query Look up pKi with 5-hydroxytryptamine receptor 1A (Rattus norvegicus, UniProt P19327) for this compound: `COc1cccc2cc3n(c12)CCN(CCCCNC(=O)C1=Cc2ccccc2CN1)C3`
// result 7.55

* * *

# experiment: Displacement of [3H]idazoxan from imidazole I2 receptor in rabbit kidney by filtration technique
# Design: species or system Oryctolagus cuniculus
endpoint: pKi
Note on units: pKi is unitless, being -log10 of a concentration expressed in mol/L.

// query Quick one: pKi for `Cc1cccc(N2CCN(CCCCNC(=O)c3cc4ccccc4o3)CC2)c1` ?
// result 6.86

* * *

# Species on record: Mus musculus
# study_conditions: in vivo, 0.5 h
# Description: Sedative activity in NMRI mouse assessed as reduction in spontaneous locomotor activity administered 30 mins prior to testing
endpoint: ED50

{"columns": ["compound", "ED50"],
 "data": [
  ["O=C(CCCN1CCC(O)(c2ccc(Cl)cc2)CC1)c1ccc(F)cc1", "0.08 mg/kg"],
  ["O=C1c2cc3ccccc3n2CCN1CCCCN1CCN(c2cccc(Cl)c2Cl)CC1", "> 30 mg/kg"],
  ["Cc1cccc(N2CCN(CCCCNC(=O)c3cc4ccccc4o3)CC2)c1", "5.5 mg/kg"],
  ["Clc1cccc(N2CCN(CCCCCOc3cc4ccccc4cn3)CC2)c1Cl", "> 30 mg/kg"],
  ["O=C(NCCCCN1CCN(c2cccc(Cl)c2)CC1)c1cc2ccccc2cn1", "14 mg/kg"]
]}

// below: ED50 requested for another compound
// query Quick one: ED50 for `CN1CCN(C2=Nc3cc(Cl)ccc3Nc3ccccc32)CC1` ?
// result 2.4 mg/kg

* * *

# tested_system: D(3) dopamine receptor (Homo sapiens, UniProt P35462)
# Sequence (P35462 whole entry): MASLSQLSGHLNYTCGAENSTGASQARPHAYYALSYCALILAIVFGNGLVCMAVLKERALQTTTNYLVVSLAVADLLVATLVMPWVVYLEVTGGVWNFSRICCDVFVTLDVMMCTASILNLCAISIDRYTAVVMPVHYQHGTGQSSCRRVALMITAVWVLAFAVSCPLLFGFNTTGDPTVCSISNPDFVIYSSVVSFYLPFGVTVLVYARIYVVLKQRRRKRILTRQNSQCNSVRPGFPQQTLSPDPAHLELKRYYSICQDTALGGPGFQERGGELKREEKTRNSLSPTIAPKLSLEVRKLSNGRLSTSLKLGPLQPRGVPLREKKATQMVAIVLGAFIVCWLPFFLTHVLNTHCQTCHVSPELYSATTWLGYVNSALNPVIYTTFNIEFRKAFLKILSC
# experiment: Antagonist activity at human dopamine D3 receptor expressed in CHO-K1 cells by [35S]GTPgammaS binding assay
endpoint: pIC50
Note on units: pIC50 is unitless, being -log10 of a concentration expressed in mol/L.

// query Quick one: pIC50 for `Cc1cccc(N2CCN(CCCCNC(=O)c3cc4ccccc4o3)CC2)c1` ?
// result 6.84

* * *

# tested_system: D(3) dopamine receptor (Homo sapiens, UniProt P35462)
endpoint: pKi
Note on units: pKi is unitless, being -log10 of a concentration expressed in mol/L.

// query Look up pKi with D(3) dopamine receptor (Homo sapiens, UniProt P35462) for this molecule: `O=C1c2cc3ccccc3n2CCN1CCCCN1CCN(c2ccc(Cl)cc2Cl)CC1`
// result 8.49

// query Look up pKi with D(3) dopamine receptor (Homo sapiens, UniProt P35462) for this molecule: COc1cccc2c1C1CCN(CCCCNC(=O)C3=Cc4ccccc4CN3)CC1=N2 (centres undefined)
// result 8.22

// query Look up pKi with D(3) dopamine receptor (Homo sapiens, UniProt P35462) for this molecule: `O=C(NCCCCN1CCN(c2ccc(Cl)cc2Cl)CC1)c1cc2cc(Cl)ccc2[nH]1`
// result 9.42

// query Look up pKi with D(3) dopamine receptor (Homo sapiens, UniProt P35462) for this molecule: `O=C1c2cc3ccccc3n2CCN1CCCCN1CCN(c2cccc(Cl)c2Cl)CC1`
// result 9.98

// query Look up pKi with D(3) dopamine receptor (Homo sapiens, UniProt P35462) for this molecule: `COc1cccc2cc3n(c12)CCN(CCCCN1CCn2c(cc4ccccc42)C1=O)C3`
// result 8.07

// query Look up pKi with D(3) dopamine receptor (Homo sapiens, UniProt P35462) for this molecule: `Clc1cccc(N2CCN(CCCCCOc3cc4ccccc4cn3)CC2)c1Cl`
// result 9.85

// query Look up pKi with D(3) dopamine receptor (Homo sapiens, UniProt P35462) for this molecule: `O=C(NCCCCN1CCN(c2cccc(Cl)c2Cl)CC1)c1cc2ccccc2cn1`
// result 10.00

// query Look up pKi with D(3) dopamine receptor (Homo sapiens, UniProt P35462) for this molecule: `Cc1cccc(N2CCN(CCCCNC(=O)c3cc4ccccc4o3)CC2)c1`
// result 8.35

// query Look up pKi with D(3) dopamine receptor (Homo sapiens, UniProt P35462) for this molecule: `N#Cc1cccc(N2CCN(CCCCN3CCn4c(cc5ccccc54)C3=O)CC2)c1`
// result 8.43
